System: RXF 393 renal
test: NCI tumour cell line growth inhibition, 48 h
Collected TGI values appear next to each entry.

compound	study.system	TGI
Nc1nc(-c2cccc(Cl)c2)c(-c2ccc3ncccc3n2)s1	RXF 393 renal	> 25 µM
O=C(Nc1ccc(Cl)cc1Cl)C(=O)C(C(=O)c1ccncc1)C1OC(=O)c2ccccc21 (centres undefined)	RXF 393 renal	> 100 µM
COc1cc(O)c2c(c1)OCC(Cc1ccc(O)cc1)C2=O (centres undefined)	RXF 393 renal	> 100 µM

Now examine the next entry.
IN: Suppose we examine the compound CCn1c(SCC(=O)NNC(=S)Nc2ccc(C)cc2)nc2ccccc2c1=O ; what TGI value has been reported?
OUT: > 100 µM

Origin of measurements: PubChem BioAssay (NCI)
